- Test system: P388 leukemia ip, CD2F1 mice, survival T/C
- ASSAY_PROCEDURE: NCI In Vivo Anticancer Drug Screen. Data for tumor model P388 Leukemia (intraperitoneal) in CD2F1 (CDF1) mice
- MEASUREMENT_CONTEXT: endpoint: median survival time; dose: 100.0 mg/kg/injection; schedule: Q01DX009 (ip); vehicle: saline with Tween-80; higher = longer survival
Toxic doses and inconclusive results are not listed.
Each entry below carries its recorded T/C.

Some molecules with recorded T/C:
MOLECULE: CN1C(=O)C(O)(CC(=O)c2ccccc2)c2ccccc21 (centres undefined)
T/C: 93 % of control
//
MOLECULE: CCN(CC)C(Cc1ccccc1)=NC(C)(C)C
T/C: 88 % of control
//
MOLECULE: COC(=O)c1cccc(COc2ccc([N+](=O)[O-])cc2Cl)c1
T/C: 100 % of control
//
MOLECULE: CN1CC=Nc2c1nc(N)[nH]c2=O
T/C: 95 % of control
//
MOLECULE: Nc1nc(N)nc(N)n1 (tested in a mixture with another compound)
T/C: 92 % of control
//
MOLECULE: NC(=O)C(=O)c1cc(Cl)c(Cl)c(Cl)c1Cl
T/C: 96 % of control
//
MOLECULE: CN1CCc2cc(O)c(O)cc2C1Cc1ccc(O)c(O)c1 (centres undefined)
T/C: 96 % of control
//
MOLECULE: Cn1c(=O)c2ccccc2c2ccccc21
T/C: 96 % of control

query: Please give the documented T/C of COc1cc(-c2oc3ccccc3c(=O)c2O)cc(OC)c1OC
result: 91 % of control

query: Please give the documented T/C of O=C(O)c1cc2ccccc2o1
result: 95 % of control

query: Please give the documented T/C of O=C(CN1CCCCC1)Nc1cccc(Cl)c1
result: 100 % of control

query: Please give the documented T/C of C[C@@H]1CC2=CC(=O)CC[C@]2(C)[C@H]2CC[C@]3(C)[C@@H](O)CC[C@H]3[C@H]12
result: 90 % of control

query: Please give the documented T/C of CSNC(C)=O
result: 111 % of control

query: Please give the documented T/C of CC(=O)Nc1ccc(C(=O)C=O)cc1
result: 119 % of control

query: Please give the documented T/C of COc1ccc(C2OC23Cc2ccccc2C3=O)cc1OC (centres undefined)
result: 100 % of control

query: Please give the documented T/C of COC1/C=C/OC2(C)Oc3c(C)c(O)c4c(O)c(c(/C=N/N5C(C)CN(Cc6ccc(C(C)(C)C)cc6)CC5C)c(O)c4c3C2=O)NC(=O)/C(C)=C\C=C\C(C)C(O)C(C)C(O)C(C)C(OC(C)=O)C1C (centres undefined)
result: 119 % of control

query: Please give the documented T/C of C/C=C(\C#N)SCC
result: 114 % of control

query: Please give the documented T/C of COC(=O)/C=C(\C)NC(=NC(C)(C)C)c1ccccc1
result: 101 % of control

query: Please give the documented T/C of O=C(Nc1ccc(F)cc1)Nc1nccs1
result: 95 % of control

====

- Tested on: P388 leukemia ip, CD2F1 mice, survival T/C
- ASSAY_PROCEDURE: NCI In Vivo Anticancer Drug Screen. Data for tumor model P388 Leukemia (intraperitoneal) in CD2F1 (CDF1) mice
- MEASUREMENT_CONTEXT: endpoint: median survival time; dose: 100.0 mg/kg/injection; schedule: Q01DX001 (ip); vehicle: Klucel (hydroxypropylcellulose) (HPC); higher = longer survival
Toxic doses and inconclusive results are not listed.
VALUE_TYPE: T/C

Some molecules with recorded T/C:
MOLECULE: NC(=O)C(=O)NNc1cccc(Cl)n1
T/C: 98 % of control
--
MOLECULE: O=Cc1c(-c2ccc(-c3ccccc3)cc2)nc2sccn12
T/C: 86 % of control
--
MOLECULE: C(=N/Nc1ccccc1)/C(=N\Nc1ccccc1)C1CCN(Cc2ccccc2)CC1
T/C: 100 % of control
--
MOLECULE: CN1CCN(C(=S)C(O)(c2ccccc2)c2ccccc2)CC1
T/C: 105 % of control
--
MOLECULE: CCCN1C(=O)Cc2ccccc21
T/C: 95 % of control
--
MOLECULE: CN(CCc1nnnn1C)/N=C\C=N\N(C)CCc1nnnn1C
T/C: 112 % of control
--
MOLECULE: CCC(=O)/C=C/c1ccc(N(Cl)Cl)cc1
T/C: 104 % of control
--
MOLECULE: Cc1nn2c(-c3cnns3)nnc2s1
T/C: 107 % of control

query: Please give the documented T/C of CC1=CC(=O)C(Cc2ccccc2)(c2ccc(O)cc2O)N1 (configuration not stated)
result: 101 % of control

query: Please give the documented T/C of COc1cc2ccnc(C3(O)CCN(C)CC3)c2cc1OC
result: 105 % of control

query: Please give the documented T/C of CC(C)(C)N1OC2C=CC1CC2O (configuration not stated) (tested in a mixture with another compound)
result: 107 % of control

query: Please give the documented T/C of CCn1c(Cl)c(/C=N/Nc2ccccc2[N+](=O)[O-])c2cc(/C=N/Nc3ccccc3[N+](=O)[O-])ccc21
result: 87 % of control

====

Each entry below carries its recorded T/C.
- Tested on: P388 leukemia ip, CD2F1 mice, survival T/C
- ASSAY_PROCEDURE: NCI In Vivo Anticancer Drug Screen. Data for tumor model P388 Leukemia (intraperitoneal) in CD2F1 (CDF1) mice
- MEASUREMENT_CONTEXT: endpoint: median survival time; dose: 120.0 mg/kg/injection; schedule: Q01DX005 (ip); vehicle: saline; higher = longer survival
Inconclusive results and toxic doses are left out.

Some molecules with recorded T/C:
MOLECULE: COC(=O)C(OC)(OC)C(O)c1ccccc1 (stereo not drawn)
T/C: 106 % of control
--
MOLECULE: O=C(NCCNC(=O)[C@H]1CCCN1)[C@H]1CCCN1
T/C: 91 % of control

Here is another molecule to look at.
query: State the measured T/C (P388 leukemia ip, CD2F1 mice, survival T/C) of CSCC[C@H](NC(C)=O)B1OCCO1
result: 104 % of control

====

Each entry below carries its recorded T/C.
- Tested on: P388 leukemia ip, CD2F1 mice, survival T/C
- ASSAY_PROCEDURE: NCI In Vivo Anticancer Drug Screen. Data for tumor model P388 Leukemia (intraperitoneal) in CD2F1 (CDF1) mice
- MEASUREMENT_CONTEXT: endpoint: median survival time; dose: 60.0 mg/kg/injection; schedule: Q01DX005 (ip); vehicle: saline with Tween-80; higher = longer survival
Inconclusive results and toxic doses are left out.

COMPOUND: CN1c2ccccc2SC2C(c3ccccc3)=NOC21 (centres undefined)
RESULT: 86 % of control
--
COMPOUND: COC(SC)(C(=O)O)c1cc(-c2c(Cl)cccc2Cl)no1 (centres undefined)
RESULT: 96 % of control
--
COMPOUND: COC1C=CC(=O)C(C)(c2ccc(S(=O)(=O)c3ccccc3)cc2)O1 (centres undefined)
RESULT: 104 % of control
--
COMPOUND: Cn1c(N)cc2nc3ccccc3n2c1=O
RESULT: 96 % of control
--
COMPOUND: CCOC(=O)C1=C(C(=O)c2ccc(C)cc2)C(c2cccc([N+](=O)[O-])c2)C(C(=O)c2ccc(C)cc2)=C(C(=O)OCC)N1
RESULT: 103 % of control

query: Please give the documented T/C of Cc1ccc2c(c1)C1(SC(C)C(=O)N1c1ccc(Br)cc1)C(=O)N2 (centres undefined)
result: 94 % of control

query: Please give the documented T/C of CC1SC2(C(=O)Nc3ccccc32)N(c2ccc(Cl)cc2)C1=O (centres undefined)
result: 101 % of control

query: Please give the documented T/C of CCCc1[nH]nc(-c2n[nH]c(CCC)c2CC)c1CC
result: 101 % of control

query: Please give the documented T/C of O=C(CCl)N1CCN(c2ccccc2)CC1
result: 97 % of control

====

- Test system: P388 leukemia ip, CD2F1 mice, survival T/C
- ASSAY_PROCEDURE: NCI In Vivo Anticancer Drug Screen. Data for tumor model P388 Leukemia (intraperitoneal) in CD2F1 (CDF1) mice
- MEASUREMENT_CONTEXT: endpoint: median survival time; dose: 200.0 mg/kg/injection; schedule: Q01DX009 (ip); vehicle: Klucel (hydroxypropylcellulose) (HPC); higher = longer survival
Inconclusive results and toxic doses are left out.
VALUE_TYPE: T/C

MOLECULE: O=C(OCc1ccccc1)SS(=O)(=O)O
T/C: 119 % of control

query: Please give the documented T/C of CCn1c2ccccc2c2cc(N)c(N=Nc3ccc([N+](=O)[O-])cc3)cc21
result: 105 % of control

query: Please give the documented T/C of COc1ccc(/C=C2\SC(=S)NC2=O)cc1OC
result: 94 % of control

query: Please give the documented T/C of Cc1ccc(S(=O)(=O)NCCCc2ccccc2)cc1
result: 115 % of control

query: Please give the documented T/C of c1ccc2c(c1)Sc1ccccc1N2Cc1cnc[nH]1
result: 118 % of control

query: Please give the documented T/C of O=C1NC(=O)C(=Cc2cc3c(cc2Br)OCO3)C(=O)N1
result: 113 % of control

query: Please give the documented T/C of O=C1C(=C2C=CN(CCN3CCCCC3)C=C2)C(=O)c2ccccc21
result: 87 % of control

query: Please give the documented T/C of CCCCCCCCCC(=O)Nc1ncc([N+](=O)[O-])s1
result: 94 % of control

query: Please give the documented T/C of CSc1ccccc1P(c1ccccc1)c1ccccc1SC
result: 91 % of control

query: Please give the documented T/C of CC(C)C(N)C(=O)O (centres undefined)
result: 91 % of control

query: Please give the documented T/C of CC1(C)C(c2ccccc2)CC(c2cccc(O)c2)=[N+]1[O-] (centres undefined)
result: 101 % of control
